Recorded switch fluorescence ratio, one value per entry.
# System: ATP;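 further: ATP exposure 15 min at 22 °C before imaging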
# Protocol: switch fluorescence ratio, 500 uM ATP over buffer (Cy3 cluster intensity, sum of 5 cycles each) (fold (ratio)); higher = stronger signal-on switching upon ATP binding; sequences stand for … in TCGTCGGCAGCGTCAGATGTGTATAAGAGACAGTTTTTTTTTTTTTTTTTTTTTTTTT…TC
# Setup conditions: aptamer strand: ATP DNA aptamer (quencher-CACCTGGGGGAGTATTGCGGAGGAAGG + anchor), 100 nM annealed; ATP concentration: 500 uM
# output: bare number, no unit

Here is how some sequences turned out for switch fluorescence ratio.
>>> assay_result("TTAGCCGGGT")
0.98
>>> assay_result("TTTTAACCGG")
0.974
>>> assay_result("CGTGTTTTAT")
0.998
>>> assay_result("TCTCGTTTTT")
1
>>> assay_result("CAAGGGTTGC")
0.987
>>> assay_result("GGAAACTCTC")
1
>>> assay_result("AGACATCTTT")
1.02
>>> assay_result("TGGTGGTGTG")
0.983

Now for a further sequence.
Ask: Checklist item: switch fluorescence ratio tested on ATP, entry "TTTGCCCCTT" , value?;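 further: ATP exposure 15 min at 22 °C before imaging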
Result: 1.02
